system_tested: SARS-CoV M^pro (Severe acute respiratory syndrome coronavirus)
property_measured: pIC50
Here pIC50 is given on a logarithmic scale as minus log10 of the concentration in mol/L.

As a guide, the following entries are already answered.
INSERT INTO measurements (smiles_text, numeric_readout) VALUES
  ('COC(=O)c1c[nH]c(SSc2ccccc2[N+](=O)[O-])n1', 5.68),
  ('CCOC(=O)c1ccccc1SSc1nc(C(=O)OC)c[nH]1', 5.23),
  ('COC(=O)c1c[nH]c(SSc2ccccc2C(=O)OC)n1', 5.40);

Please find the next compound below.
Given the entry `COC(=O)c1c[nH]c(SSc2ccc(Cl)cc2)n1` , report its measured pIC50. 5.38
